Listed here are substances together with their documented % KD.
- Tested on: Bach1 mRNA
- assay.overview: Initial screen: Bach1 mRNA knock-down in mouse NIH 3T3 cells (96-well transfection, quantitative RT-PCR)
- Assay type: cell-based
- test.context: mouse NIH3T3 cells, n = 2, 24 hrs post-transfection, protocol 10 nM siNA
[invAb] = inverted abasic unit; m = 2'-O-methyl; r = 2'-OH (RNA); f = 2'-fluoro
Entry rule: numbers only, all in %.

29966-DC: Bach1 siNA duplex, target site 1375; sense B GGccAAAGAuGGcucAGAA TTB (SEQ 81); antisense UUCuGAGccAucuuuGGccUU (SEQ 82) (sense GGCCAAAGAUGGCUCAGAATT; antisense UUCUGAGCCAUCUUUGGCCUU; sense: DNA at AGT, 2'-fluoro at CU, [invAb] at 5' end, 3' end, backbone not given here; antisense: sugars from the 5' end rrrfmmmffmfffffmmffmm, backbone not given here): −12.7

Now for a further substance.
input: What measured % KD goes with 29949-DC: Bach1 siNA duplex, target site 664; sense B GuGuAAAcuccGcAGGuAu TTB (SEQ 47); antisense AUAccuGcGGAGuuuAcAcUU (SEQ 48) (sense GUGUAAACUCCGCAGGUAUTT; antisense AUACCUGCGGAGUUUACACUU; sense: DNA at AGT, 2'-fluoro at CU, [invAb] at 5' end, 3' end, backbone not given here; antisense: sugars from the 5' end rrrfffmfmmmmfffmfmfmm, backbone not given here) ?
output: −7.1

---

// reported % KD for each item listed
- System: Bach1 mRNA
- assay.overview: Initial screen: Bach1 mRNA knock-down in mouse NIH 3T3 cells (96-well transfection, quantitative RT-PCR)
- Type: cell-based
- test.context: mouse NIH3T3 cells, n = 2, 24 hrs post-transfection, protocol 10 nM siNA
- Method: All cells were obtained from ATCC (Manassas, Va.) unless otherwise indicated. Cells were grown and transfected under standard conditions, which are detailed below for each cell line. Cells were plated in all wells of a tissue-culture treated, 96-well plate at a final count of 5000 cells/well in 100 μL of the appropriate culture media. […] The expression level of the gene of interest and % knock-down was calculated using Comparative Ct method: […]
[invAb] = inverted abasic unit; m = 2'-O-methyl; r = 2'-OH (RNA); f = 2'-fluoro
Your answer is read as %, so omit the unit and give the number.

Sample answers from the record:
29968-DC: Bach1 siNA duplex, target site 671 (mouse); sense B GcAGAuGAAuucuuGGAAA TTB (SEQ 85); antisense UUUccAAGAAuucAucuGcUU (SEQ 86) (sense GCAGAUGAAUUCUUGGAAATT; antisense UUUCCAAGAAUUCAUCUGCUU; sense: DNA at AGT, 2'-fluoro at CU, [invAb] at 5' end, 3' end, backbone not given here; antisense: sugars from the 5' end rrrffmmmmmfffmfffmfmm, backbone not given here): 71
29958-DC: Bach1 siNA duplex, target site 851; sense B GucAAAGAcAuucAuGcuu TTB (SEQ 65); antisense AAGcAuGAAuGucuuuGAcUU (SEQ 66) (sense GUCAAAGACAUUCAUGCUUTT; antisense AAGCAUGAAUGUCUUUGACUU; sense: DNA at AGT, 2'-fluoro at CU, [invAb] at 5' end, 3' end, backbone not given here; antisense: sugars from the 5' end rrrfmfmmmfmfffffmmfmm, backbone not given here): −50.4

input: Report % KD for 29976-DC: Bach1 siNA duplex, target site 1585 (mouse); sense B cuGcucAAGcAAcuuGGAA TTB (SEQ 101); antisense UUCcAAGuuGcuuGAGcAGUU (SEQ 102) (sense CUGCUCAAGCAACUUGGAATT; antisense UUCCAAGUUGCUUGAGCAGUU; sense: DNA at AGT, 2'-fluoro at CU, [invAb] at 5' end, 3' end, backbone not given here; antisense: sugars from the 5' end rrrfmmmffmfffmmmfmmmm, backbone not given here) please.
output: −1.2

input: Report % KD for 29980-DC: Bach1 siNA duplex, target site 1939 (mouse); sense B cGAGAAGcuGcAAAGuGAA TTB (SEQ 109); antisense UUCAcuuuGcAGcuucucGUU (SEQ 110) (sense CGAGAAGCUGCAAAGUGAATT; antisense UUCACUUUGCAGCUUCUCGUU; sense: DNA at AGT, 2'-fluoro at CU, [invAb] at 5' end, 3' end, backbone not given here; antisense: sugars from the 5' end rrrmffffmfmmffffffmmm, backbone not given here) please.
output: 49.2

---

- System: Bach1 mRNA
- assay.overview: Dose-response curve of Bach1 mRNA knock-down in human A549 cells
- Format: cell-based
- test.context: Table 4, Bach1 mRNA, 12 concentrations 0.083 fM to 30 nM, three experiments, mean ± standard deviation
measure.name: Maximum % KD in DRC
Record the result as a number with its unit.

29957-DC (sense GCAGUUACUUCCACUCAAGTT; antisense CUUGAGUGGAAGUAACUGCUU; inverted abasic end caps, TT overhangs, modified nucleotides, further chemistry not given here): 87 ± 0.9%

input: Item 29947-DC (sense GGAAUCCUGCUUUCAGUUUTT; antisense AAACUGAAAGCAGGAUUCCUU; inverted abasic caps (B), 2'-modified nucleotides, further chemistry not given here) has what recorded Maximum % KD in DRC?
output: 86 ± 0.5%

---

- System: Bach1 mRNA
- assay.overview: Initial screen: Bach1 mRNA knock-down in human A549 cells (96-well transfection, quantitative RT-PCR)
- Assay type: cell-based
- test.context: Table 5; Bach1 mRNA screening data, A549 cells
- Description: All cells were obtained from ATCC (Manassas, Va.) unless otherwise indicated. Cells were grown and transfected under standard conditions, which are detailed below for each cell line. Cells were plated in all wells of a tissue-culture treated, 96-well plate at a final count of 5000 cells/well in 100 μL of the appropriate culture media. […] The expression level of the gene of interest and % knock-down was calculated using Comparative Ct method: […]
Recorded % KD Bach1 by entry
Your answer is read as %, so omit the unit and give the number.

29957-DC (sense GCAGUUACUUCCACUCAAGTT; antisense CUUGAGUGGAAGUAACUGCUU; inverted abasic end caps, TT overhangs, modified nucleotides, further chemistry not given here): 84.6
29961-DC (sense CUACACUGCUAAACUGAUUTT; antisense AAUCAGUUUAGCAGUGUAGUU; inverted abasic end caps, TT overhangs, modified nucleotides, further chemistry not given here): 90
29988-DC (sense AUUUGAACCUUUAAUUCAGTT; antisense CUGAAUUAAAGGUUCAAAUUU; inverted abasic end caps, TT overhangs, modified nucleotides, further chemistry not given here): 86.2

input: Need % KD Bach1, item 29947-DC (sense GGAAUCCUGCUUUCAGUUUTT; antisense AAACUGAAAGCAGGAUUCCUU; inverted abasic caps (B), 2'-modified nucleotides, further chemistry not given here)
output: 83.4

input: Which % KD Bach1 is reported for this substance? 29956-DC (sense GUCUGAGUGUCCGUGGUUATT; antisense UAACCACGGACACUCAGACUU; inverted abasic caps (B), 2'-modified nucleotides, further chemistry not given here)
output: 75.8

input: Any idea what its % KD Bach1 is? The substance is 29964-DC (sense GAUUUGCAGGUGAUGUUAATT; antisense UUAACAUCACCUGCAAAUCUU; inverted abasic end caps, TT overhangs, modified nucleotides, further chemistry not given here)
output: 90.1

---

- Test system: Bach1 mRNA
- assay.overview: Dose-response curve of Bach1 mRNA knock-down in human A549 cells
- Assay type: cell-based
- test.context: Table 4, Bach1 mRNA knock-down, three experiments, mean ± standard deviation
Below: a set of entries, each annotated with reported pIC50.
FYI, pIC50 means -log10 of a concentration in mol per litre.

The following substances have reported results that may help.
29956-DC (sense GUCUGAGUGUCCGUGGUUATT; antisense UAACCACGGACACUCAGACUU; inverted abasic caps (B), 2'-modified nucleotides, further chemistry not given here): 10.55
29947-DC (sense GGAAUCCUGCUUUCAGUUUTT; antisense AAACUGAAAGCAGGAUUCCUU; inverted abasic caps (B), 2'-modified nucleotides, further chemistry not given here): 10.57
29961-DC (sense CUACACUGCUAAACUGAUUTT; antisense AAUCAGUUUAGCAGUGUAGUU; inverted abasic end caps, TT overhangs, modified nucleotides, further chemistry not given here): 11.00
29957-DC (sense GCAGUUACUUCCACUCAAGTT; antisense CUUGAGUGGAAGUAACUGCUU; inverted abasic end caps, TT overhangs, modified nucleotides, further chemistry not given here): 10.41
29988-DC (sense AUUUGAACCUUUAAUUCAGTT; antisense CUGAAUUAAAGGUUCAAAUUU; inverted abasic end caps, TT overhangs, modified nucleotides, further chemistry not given here): 10.20

input: What value of pIC50 has been reported for the following substance? 29964-DC (sense GAUUUGCAGGUGAUGUUAATT; antisense UUAACAUCACCUGCAAAUCUU; inverted abasic end caps, TT overhangs, modified nucleotides, further chemistry not given here)
output: 10.57
